- assay system: Human recombinant FAP (Homo sapiens, UniProt Q12884)
- Sequence (Q12884 whole entry): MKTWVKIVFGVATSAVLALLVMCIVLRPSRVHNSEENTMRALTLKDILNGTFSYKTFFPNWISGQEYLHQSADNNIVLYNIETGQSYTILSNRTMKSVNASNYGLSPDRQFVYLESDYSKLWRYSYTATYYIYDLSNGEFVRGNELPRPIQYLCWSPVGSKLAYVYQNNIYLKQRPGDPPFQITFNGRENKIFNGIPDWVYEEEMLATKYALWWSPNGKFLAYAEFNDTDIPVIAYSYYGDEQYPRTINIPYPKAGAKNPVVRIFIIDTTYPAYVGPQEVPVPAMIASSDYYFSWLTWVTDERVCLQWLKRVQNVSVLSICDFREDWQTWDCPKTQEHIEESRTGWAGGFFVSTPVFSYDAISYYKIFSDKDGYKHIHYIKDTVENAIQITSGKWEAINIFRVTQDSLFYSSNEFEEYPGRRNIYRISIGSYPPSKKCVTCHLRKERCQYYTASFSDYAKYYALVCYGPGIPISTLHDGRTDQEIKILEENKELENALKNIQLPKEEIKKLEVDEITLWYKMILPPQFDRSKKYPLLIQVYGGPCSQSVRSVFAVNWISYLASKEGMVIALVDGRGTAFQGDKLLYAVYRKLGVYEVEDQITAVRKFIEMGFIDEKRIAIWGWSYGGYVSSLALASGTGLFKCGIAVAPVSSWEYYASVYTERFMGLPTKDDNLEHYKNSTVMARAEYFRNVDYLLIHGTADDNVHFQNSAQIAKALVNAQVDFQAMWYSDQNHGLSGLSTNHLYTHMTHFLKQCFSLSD
- experiment notes: Surface plasmon resonance (Biacore) assay
Numbered stars: 1 amine (or outer) side, 2 acyl side, 3 side chain; on linkers, the order of the positions; unused ones are H or OH. Bridge positions count the residues as written; N and C are the ends. Square brackets hold non-standard residues; d marks the D form. Peptide text beside a SMILES is read from it. * marks the point of attachment. X2 = O=C(O)CN1CCN(CC(=O)O)CCN(CC(=O)NCCCOCCOCCOCCCN*)CCN(CC(=O)O)CC1; X9 = NCCNCC(CNCCN)C(=O)N[C@@H](CCC(=O)O)C(=O)NCCCOCCOCCOCCCN*; X10 = O=C([C@H](CCCc1cccc(C[*:3])c1)N[*:1])[*:2]; mXylylene = c1cc(C[*:1])cc(C[*:2])c1; Suc = O=C(CCC(=O)[*:2])[*:1]; 4Amb = NCc1ccc(C(=O)O)cc1; Nle = CCCC[C@H](N)C(=O)O
Reported Kd values for a set of compounds

Use these answered entries as a reference point.
I looked up CCCC[C@H](NC(=O)CCC(=O)NCCCOCCOCCOCCCNC(=O)CN1CCN(CC(=O)O)CCN(CC(=O)O)CCN(CC(=O)O)CC1)C(=O)N[C@H]1CSCc2cccc(c2)CSC[C@@H](C(=O)N[C@@H](CC(=O)O)C(=O)NCc2ccc(C(=O)N[C@@H](CCCNC(=N)N)C(N)=O)cc2)NC(=O)[C@H](Cc2ccccc2)NC(=O)[C@H](CCC(=O)O)NC(=O)[C@H]([C@@H](C)O)NC(=O)[C@@H]2CCCN2C(=O)[C@@H]2CCCN2C1=O [3BP-3321] ({X2-Suc}-[Nle]CPPTEFCD[4Amb]R-NH2; linker 2-8 via mXylylene) and its Kd for Human recombinant FAP (Homo sapiens, UniProt Q12884) was < 10 nM

Tested system Human recombinant FAP (Homo sapiens, UniProt Q12884); Kd recorded for CCCCCS(=O)(=O)N[C@H]1CSCc2cc(CSCCNC(=O)CN3CCN(CC(=O)O)CCN(CC(=O)O)CCN(CC(=O)O)CC3)cc(c2)CSC[C@@H](C(=O)O)NC(=O)[C@H](Cc2ccccc2)NC(=O)[C@H](CCC(N)=O)NC(=O)[C@H]([C@@H](C)O)NC(=O)[C@@H]2CCCN2C(=O)[C@@H]2CCCN2C1=O [3BP-3690] was < 10 nM

***
Readout Kd for CCCC[C@H](NC(=O)CCC(=O)NCCCOCCOCCOCCCNC(=O)[C@H](CCC(=O)O)NC(=O)C(CNCCN)CNCCN)C(=O)N[C@H]1CSCc2cccc(c2)CCC[C@@H](C(=O)O)NC(=O)[C@H](Cc2ccccc2)NC(=O)[C@H](CCC(=O)O)NC(=O)[C@H]([C@@H](C)O)NC(=O)[C@@H]2CCCN2C(=O)[C@@H]2CCCN2C1=O [3BP-4222] ({X9-Suc}-[Nle]CPPTEF[X10]-OH; thioether 2-8) , test system Human recombinant FAP (Homo sapiens, UniProt Q12884), was < 10 nM
